B1: Hairpin Ribozyme (parent)
chain: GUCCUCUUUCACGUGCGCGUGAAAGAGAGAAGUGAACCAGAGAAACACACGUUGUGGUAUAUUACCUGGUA

Variants of: B1
Test: self-cleavage, relative activity (ratio to wild type); higher = more cleavage; co-transcriptional
As shown below, each of these variants has a reported self-cleavage value.

sequence-data: GUCCUCUUUCACGUCCGCGUGAAAGAGAGAAGUGAACCAGAGAAACACACGUUGUGGUAUAUUACCUGCUA
self-cleavage: 0.275
//
sequence-data: GUCCUCUUUCACGUGCGCGUUAAAGAGAGAAGUGAACCAGAGAAACACACGCUGUGGUAUAUUACCUGGUA
self-cleavage: 0.764
//
sequence-data: GUCCUCUUUCACGUGCGCGUGAAAGAGAGAAGUGAACCAGAUAAACACACGUUGUGGUAUAUUAUCUGGUA
self-cleavage: 0.12
//
sequence-data: GUCCUCUUUCACGUGCGCGCGAAAGAGAGAAGUCAACCAGAGAAACACACGUUGUGGUAUAUUACCUGGUA
self-cleavage: 1.45
//
sequence-data: GUCCUCUUUCACGUGCGCGUGAAAGAGAGCAGUGAACCAGAGAAACACACGUUGUGGUGUAUUACCUGGUA
self-cleavage: 0.0647
//
sequence-data: GUCCUCUUCCACGUGCGCGUGAAAGAGAGAAGGGAACCAGAGAAACACACGUUGUGGUAUAUUACCUGGUA
self-cleavage: 0.154
//
sequence-data: GUCCUCUUUCAGGUGCGCGUGAAAGAGAGAAGUGAACCAGAGAAACACACGUUGUGGUAUAGUACCUGGUA
self-cleavage: 0.21
//
sequence-data: GGCCUCUUUCACGUGCGCGUGAAAGAGAGAAGUGAACCAGAGAAACACACGAUGUGGUAUAUUACCUGGUA
self-cleavage: 0.33
//
sequence-data: GUCCUCUUUCACGUGCGCGUGAAAGAGAGAAGUGAACCAGUGAAACACACGUUCUGGUAUAUUACCUGGUA
self-cleavage: 0.891
//
sequence-data: GUCCUCUUUCACGUGCGCGUGAAAGAGAGAAGUGAACCAGAGAAACACACGUUGUGGUAUAUAACCUGCUA
self-cleavage: 0.0966
//
sequence-data: AUCCUCUUUCACGUGCGCGUGAAAGAGAGAAGUGAACCAGAGAAACACACGUUGUGGUCUAUUACCUGGUA
self-cleavage: 0.22
//
sequence-data: GUCCUCUUUCACGUGCGCGUGAAAGAGAGAAGUGAACCAGAUAAACACAUGUUGUGGUAUAUUACCUGGUA
self-cleavage: 0.197
//
sequence-data: GUCCUCUUUCACGUGCGCGUGACAGAGAGAAGUGAACCAGAGAUACACACGUUGUGGUAUAUUACCUGGUA
self-cleavage: 0.129
//
sequence-data: GUCCUCUUUCUCGUGAGCGUGAAAGAGAGAAGUGAACCAGAGAAACACACGUUGUGGUAUAUUACCUGGUA
self-cleavage: 0.696
//
sequence-data: GUCCUCUUUCACGUGUGCGUGAAAGAGAGAAGUGAACCAGAGAAACACACGUUGUGGUAUUUUACCUGGUA
self-cleavage: 0.256
//
sequence-data: GUCCUCUUUCACGUGCGCGUGAAAGAGAGAAGUGAACCACAGAAACACACGUUGUGGUCUAUUACCUGGUA
self-cleavage: 0.0991
//
sequence-data: GUCCUCUUUCACGUGUGCGUGAAAGAGAGAAGUGAACCAGAUAAACACACGUUGUGGUAUAUUACCUGGUA
self-cleavage: 0.34
//
sequence-data: GUCCUCUUUCACGUGCGCGUGAAAGAGAGAAGUGAACCAGAGAGACACACGUUAUGGUAUAUUACCUGGUA
self-cleavage: 0.151
